Data origin, for the record: ChEMBL document CHEMBL4814069

assay overview: Selectivity index, ratio of Ki for human HGPRT to Ki for Plasmodium falciparum HGXPRT
Format: toxicity
endpoint name: Ratio Ki
One number for each entry.

Field: example entries. Status: answers known.
>>> test_result("Nc1nc2c(ncn2CC2CCCN(CP(=O)([O-])[O-])C2)c(=O)[nH]1.[Na+].[Na+] (stereo unspecified)")
3.5
>>> test_result("Nc1nc2c(ncn2CC2CN(CCP(=O)([O-])[O-])CCN2CCP(=O)([O-])[O-])c(=O)[nH]1.[Na+].[Na+].[Na+].[Na+] (stereo unspecified)")
0.075
>>> test_result("Nc1nc2c(ncn2[C@H]2CCN(C(=O)CP(=O)(O)O)C2)c(=O)[nH]1")
182
>>> test_result("O=c1[nH]cnc2c1ncn2CC1CN(CCP(=O)([O-])[O-])CCN1CCP(=O)([O-])[O-].[Na+].[Na+].[Na+].[Na+] (stereo unspecified)")
0.14
>>> test_result("Nc1nc2c(ncn2CCN(CCOCCP(=O)(O)O)CCP(=O)(O)O)c(=O)[nH]1")
0.45

**Query** What does the data say about its Ratio Ki? Entry: `Nc1nc2c(ncn2C[C@@H]2CCCN2CCP(=O)([O-])[O-])c(=O)[nH]1.[Na+].[Na+]`
**Result** 1.8
